- systemUnderTest: STAT6 (Homo sapiens)
- Construct: stably transfected HaCaT keratinocyte cell line, which expresses NanoLuc luciferase reporter gene under the transcriptional control of the STAT6 responsive promoter; endogenous in cells; host or cells: HaCaT keratinocyte reporter cell line (stably transfected with a NanoLuc reporter)
- assayRemarks: STAT6 Reporter Luciferase Assay (IL-13 stimulated HaCaT keratinocyte NanoLuc reporter cells)
- Type: cell-based
- conditionInfo: STAT6 NanoLuc luciferase reporter, IL-13 stimulated HaCaT keratinocyte cells; read-out: Reporter EC50
pEC50: −log10 of the molar value.
measurementLabel: pEC50

{"compound": "CN(C)C(=O)Nc1ccc(CNC(=O)c2nn(C34CC(C3)C4)c3c2CN(c2ccc(C(=O)N(C)C)cn2)CC3)cc1", "pEC50": 8.15}
{"compound": "CN(C)C(=O)Nc1ccc(CNC(=O)c2nn(C3CCOCC3)c3c2CN(c2ccc(C(=O)N(C)C)cn2)CC3)cc1", "pEC50": 7.24}
{"compound": "CC1CN(c2ccc(-c3nccn3C)cn2)Cc2c(C(=O)NCc3ccc(NC(=O)N(C)C)cc3)nn(C)c21 (racemic)", "pEC50": 8.52}
{"compound": "CNC(=O)c1ccc(CNC(=O)c2csc3c2CN(c2ccc(C(=O)N(C)C)cn2)CC3)cc1", "pEC50": 6.02}
{"compound": "CC(C)n1nc(C(=O)NCc2ccc(NC(=O)N(C)C)cc2)c2c1CCN(c1ccc(N3C[C@H](CO)CC3=O)cn1)C2", "pEC50": 5.55}
{"compound": "CCn1nc(C(=O)NCc2ccc(NC(=O)N(C)C)cc2)c2c1CCN(c1ccc(-c3ncnn3C)cn1)C2", "pEC50": 8.22}
{"compound": "CNC(=O)c1ccc(N2CCc3c(c(C(=O)NCc4ccc(NC(=O)N(C)C)cc4)nn3C(C)C)C2)nc1", "pEC50": 6.87}
{"compound": "CN(C)C(=O)Nc1ccc(CNC(=O)c2nn(CC(F)(F)F)c3c2CN(c2ccc(C(=O)N(C)C)cn2)CC3)cc1", "pEC50": 8.15}
{"compound": "CC(C)n1nc(C(=O)NCc2ccc(-c3ncc[nH]3)cc2)c2c1CCN(c1ccc(N3CCCC3=O)cn1)C2", "pEC50": 7.14}
{"compound": "CC(C)n1nc(C(=O)NCc2ccc(NC(=O)N3CCC(C(F)F)CC3)cc2)c2c1CCN(c1ccc(C(=O)N(C)C)cn1)C2", "pEC50": 8.15}

a = CC(C)n1nc(C(=O)NCc2ccc(NC(=O)N(C)C)cc2)c2c1CCN(c1ccc(N3C(=O)OCC3CO)cn1)C2 (stereo not drawn)
b = CC(C)n1nc(C(=O)NCc2ccc(NC(=O)N3CC[C@H](F)C3)cc2)c2c1CCN(c1ccc(C(=O)N(C)C)cn1)C2
c = CN(C)C(=O)Nc1ccc(CNC(=O)c2ncn3c2CN(c2ccc(C(=O)N(C)C)cn2)CC3)cc1
stdin: Rank order required: pEC50, descending. Provide your answer as the labels ordered per the instruction.
stdout: b, c, a

1 = CN(C)C(=O)Nc1ccc(CNC(=O)c2nn(C)c3c2CN(c2ccc(C(=O)N(C)C)cn2)CC3(F)F)cc1
2 = CC(C)n1nc(C(=O)NCc2ccc(NC(=O)N(C)C)cc2)c2c1CCN(c1ccc(N3CCC4(CC4)C3=O)cn1)C2
3 = CC(C)n1nc(C(=O)NCc2ccc(NC(=O)N(C)C)cc2)c2c1CCN(c1ccc(N3C(=O)CCC34CC4)cn1)C2
4 = CC(C)n1nc(C(=O)NCc2ccc(NC(=O)N(C)C)cc2)c2c1CCN(c1ccc(N3CC(O)CC3=O)cn1)C2 (racemic)
stdin: Order the records, beginning with the lowest pEC50 and ending with the highest. Provide your answer as the labels ordered per the instruction.
stdout: 4, 2, 3, 1
(4: 6.28, 2: 6.68, 3: 6.92, 1: 8.10)

---

- systemUnderTest: STAT6 (Homo sapiens, UniProt P42226)
- Construct: stably transfected HaCaT keratinocyte cell line, which expresses NanoLuc luciferase reporter gene under the transcriptional control of the STAT6 responsive promoter; endogenous in cells; host or cells: HaCaT keratinocyte reporter cell line (stably transfected with a NanoLuc reporter)
- Sequence (P42226 1-847): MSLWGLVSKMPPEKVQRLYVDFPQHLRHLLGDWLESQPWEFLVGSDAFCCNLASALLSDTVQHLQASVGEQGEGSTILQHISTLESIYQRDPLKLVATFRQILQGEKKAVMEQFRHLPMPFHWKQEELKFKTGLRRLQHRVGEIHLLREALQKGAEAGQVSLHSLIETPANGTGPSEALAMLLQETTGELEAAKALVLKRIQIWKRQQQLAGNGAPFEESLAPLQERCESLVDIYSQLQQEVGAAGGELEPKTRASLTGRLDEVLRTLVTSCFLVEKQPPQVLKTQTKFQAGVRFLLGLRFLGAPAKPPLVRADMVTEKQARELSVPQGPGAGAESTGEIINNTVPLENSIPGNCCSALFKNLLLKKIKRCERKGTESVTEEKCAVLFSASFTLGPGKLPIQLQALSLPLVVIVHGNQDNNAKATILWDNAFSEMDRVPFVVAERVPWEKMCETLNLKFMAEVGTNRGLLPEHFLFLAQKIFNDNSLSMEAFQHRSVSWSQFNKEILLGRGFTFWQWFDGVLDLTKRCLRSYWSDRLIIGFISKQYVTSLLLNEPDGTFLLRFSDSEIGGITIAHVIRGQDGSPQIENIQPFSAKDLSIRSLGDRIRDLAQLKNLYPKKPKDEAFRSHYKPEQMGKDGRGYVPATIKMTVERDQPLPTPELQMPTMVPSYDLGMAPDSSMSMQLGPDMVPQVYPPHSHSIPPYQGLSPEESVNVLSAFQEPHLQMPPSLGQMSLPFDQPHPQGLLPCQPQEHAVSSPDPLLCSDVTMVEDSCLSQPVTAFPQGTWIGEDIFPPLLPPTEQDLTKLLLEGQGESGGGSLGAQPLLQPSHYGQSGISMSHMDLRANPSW
- assayRemarks: STAT6 Reporter Luciferase Assay (IL-13 stimulated HaCaT keratinocyte NanoLuc reporter cells)
- Format: cell-based
- conditionInfo: STAT6 NanoLuc luciferase reporter, IL-13 stimulated HaCaT keratinocyte cells; read-out: Reporter EC50
measurementLabel: EC50 (nM)

{"molecule": "CC(C)n1nc(C(=O)NCc2ccc(-c3ncc[nH]3)cc2)c2c1C(C(F)(F)F)CN(c1ccc(C(=O)N(C)C)cn1)C2 (single isomer, unassigned) [Example 124]", "EC50, nM": 0.3}

P = CC(C1CC1)n1nc(C(=O)NCc2ccc(NC(=O)N(C)C)cc2)c2c1CCN(c1ccc(C(=O)N(C)C)cn1)C2 (racemic) [Example 62]
Q = CC(C)n1nc(C(=O)NCc2ccc(NC(=O)N(C)C)cc2)c2c1CCN(c1ccc(-c3nccn3C)cn1)C2
stdin: Given P and given Q , which shows the smaller recorded EC50? Refer to your chosen entry by its label in the reply.
stdout: Q
(Q: 4 nM, P: 9 nM)

---

- systemUnderTest: STAT6 (Homo sapiens)
- Construct: stably transfected HaCaT keratinocyte cell line, which expresses NanoLuc luciferase reporter gene under the transcriptional control of the STAT6 responsive promoter; endogenous in cells; host or cells: HaCaT keratinocyte reporter cell line (stably transfected with a NanoLuc reporter)
- Sequence (P42226 1-847): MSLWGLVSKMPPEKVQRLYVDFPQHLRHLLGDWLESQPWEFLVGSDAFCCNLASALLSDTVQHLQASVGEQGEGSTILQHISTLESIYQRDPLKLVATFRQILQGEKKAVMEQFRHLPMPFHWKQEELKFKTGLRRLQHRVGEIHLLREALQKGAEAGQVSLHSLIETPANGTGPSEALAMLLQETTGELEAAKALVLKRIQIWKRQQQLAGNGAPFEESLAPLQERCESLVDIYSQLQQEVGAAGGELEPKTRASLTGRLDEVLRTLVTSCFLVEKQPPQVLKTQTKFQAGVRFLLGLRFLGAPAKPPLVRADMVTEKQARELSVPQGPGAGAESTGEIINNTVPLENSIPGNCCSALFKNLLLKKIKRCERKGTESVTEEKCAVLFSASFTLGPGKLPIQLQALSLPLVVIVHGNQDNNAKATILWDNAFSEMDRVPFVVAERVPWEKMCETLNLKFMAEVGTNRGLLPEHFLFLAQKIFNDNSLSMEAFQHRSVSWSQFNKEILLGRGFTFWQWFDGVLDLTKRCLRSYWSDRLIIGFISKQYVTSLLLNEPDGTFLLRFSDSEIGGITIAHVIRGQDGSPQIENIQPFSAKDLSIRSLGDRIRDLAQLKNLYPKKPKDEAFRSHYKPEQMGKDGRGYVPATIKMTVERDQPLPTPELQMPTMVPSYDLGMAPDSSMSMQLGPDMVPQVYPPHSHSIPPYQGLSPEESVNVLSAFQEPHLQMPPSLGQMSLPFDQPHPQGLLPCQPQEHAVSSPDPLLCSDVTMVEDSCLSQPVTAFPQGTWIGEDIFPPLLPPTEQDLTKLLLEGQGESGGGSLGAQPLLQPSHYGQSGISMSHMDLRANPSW
- assayRemarks: STAT6 Reporter Luciferase Assay (IL-13 stimulated HaCaT keratinocyte NanoLuc reporter cells)
- Type: cell-based
- conditionInfo: IL-13 stimulated HaCaT STAT6 NanoLuc reporter cells; read-out: Reporter EC50
measurementLabel: EC50 (nM)

{"compound": "CCn1nc(C(=O)NCc2ccc(-c3ncc[nH]3)cc2)c2c1[C@@H](C)CN(c1ncc(C(=O)N(C)C)cn1)C2", "measurementLabel": "EC50", "unitsLabel": "nM", "measuredValue": 1}
{"compound": "CCn1nc(C(=O)NCc2ccc(NC(=O)N(C)C)cc2)c2c1[C@@H](C)CN(c1ncc(N3CCCC3=O)cn1)C2", "measurementLabel": "EC50", "unitsLabel": "nM", "measuredValue": 3}
{"compound": "Cc1nn(C)c2c1CN(C(=O)c1ccc(N3CCc4c(c(C(=O)NCc5ccc(NC(=O)N(C)C)cc5)nn4C(C)C)C3)nc1)CC2", "measurementLabel": "EC50", "unitsLabel": "nM", "measuredValue": 38}
{"compound": "CC(C)n1nc(C(=O)NCc2ccc(NC(=O)N(C)C)cc2)c2c1CCN(c1ccc(C(=O)N3CCc4scnc4C3)cn1)C2", "measurementLabel": "EC50", "unitsLabel": "nM", "measuredValue": 12}
{"compound": "CCn1nc(C(=O)NCc2ccc(NC(=O)N(C)C)cn2)c2c1[C@@H](C)CN(c1ncc(C(=O)N(C)C)cn1)C2", "measurementLabel": "EC50", "unitsLabel": "nM", "measuredValue": 5}
{"compound": "CN(C)C(=O)Nc1ccc(CNC(=O)c2nn(CC(C)(C)C)c3c2CN(c2ccc(C(=O)N(C)C)cn2)CC3)cc1", "measurementLabel": "EC50", "unitsLabel": "nM", "measuredValue": 7}

a = CCn1nc(C(=O)NCc2ccc(NC(=O)N(C)C)cc2)c2c1CCN(c1ncc(C(=O)N(C)C)cn1)[C@@H]2C (single isomer, unassigned)
b = COCC1(N)CCN(C(=O)Nc2ccc(CNC(=O)c3nn(C(C)C)c4c3CN(c3ccc(C(=O)N(C)C)cc3)C[C@@H]4C)cc2)C1 (single isomer, unassigned) [Example 672]
c = COc1cccc2c1CN(C(=O)c1ccc(N3CCc4c(c(C(=O)NCc5ccc(NC(=O)N(C)C)cc5)nn4C(C)C)C3)nc1)C2
stdin: Rank order required: EC50, descending. Provide your answer as the labels ordered per the instruction.
stdout: a, c, b
(a: 6 nM, c: 3 nM, b: 1 nM)
